molecular target: ROCK2 (Homo sapiens); test: ROCK2 kinase inhibition assay (LABCHIP 3000 Reader, FITC peptide substrate);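 further: rho kinase reaction read by separating phosphorylated from unphosphorylated peptide on chip, with inhibition of kinase activity computed per concentration across a dose-response series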
Sequence (O75116 whole entry, species assumed): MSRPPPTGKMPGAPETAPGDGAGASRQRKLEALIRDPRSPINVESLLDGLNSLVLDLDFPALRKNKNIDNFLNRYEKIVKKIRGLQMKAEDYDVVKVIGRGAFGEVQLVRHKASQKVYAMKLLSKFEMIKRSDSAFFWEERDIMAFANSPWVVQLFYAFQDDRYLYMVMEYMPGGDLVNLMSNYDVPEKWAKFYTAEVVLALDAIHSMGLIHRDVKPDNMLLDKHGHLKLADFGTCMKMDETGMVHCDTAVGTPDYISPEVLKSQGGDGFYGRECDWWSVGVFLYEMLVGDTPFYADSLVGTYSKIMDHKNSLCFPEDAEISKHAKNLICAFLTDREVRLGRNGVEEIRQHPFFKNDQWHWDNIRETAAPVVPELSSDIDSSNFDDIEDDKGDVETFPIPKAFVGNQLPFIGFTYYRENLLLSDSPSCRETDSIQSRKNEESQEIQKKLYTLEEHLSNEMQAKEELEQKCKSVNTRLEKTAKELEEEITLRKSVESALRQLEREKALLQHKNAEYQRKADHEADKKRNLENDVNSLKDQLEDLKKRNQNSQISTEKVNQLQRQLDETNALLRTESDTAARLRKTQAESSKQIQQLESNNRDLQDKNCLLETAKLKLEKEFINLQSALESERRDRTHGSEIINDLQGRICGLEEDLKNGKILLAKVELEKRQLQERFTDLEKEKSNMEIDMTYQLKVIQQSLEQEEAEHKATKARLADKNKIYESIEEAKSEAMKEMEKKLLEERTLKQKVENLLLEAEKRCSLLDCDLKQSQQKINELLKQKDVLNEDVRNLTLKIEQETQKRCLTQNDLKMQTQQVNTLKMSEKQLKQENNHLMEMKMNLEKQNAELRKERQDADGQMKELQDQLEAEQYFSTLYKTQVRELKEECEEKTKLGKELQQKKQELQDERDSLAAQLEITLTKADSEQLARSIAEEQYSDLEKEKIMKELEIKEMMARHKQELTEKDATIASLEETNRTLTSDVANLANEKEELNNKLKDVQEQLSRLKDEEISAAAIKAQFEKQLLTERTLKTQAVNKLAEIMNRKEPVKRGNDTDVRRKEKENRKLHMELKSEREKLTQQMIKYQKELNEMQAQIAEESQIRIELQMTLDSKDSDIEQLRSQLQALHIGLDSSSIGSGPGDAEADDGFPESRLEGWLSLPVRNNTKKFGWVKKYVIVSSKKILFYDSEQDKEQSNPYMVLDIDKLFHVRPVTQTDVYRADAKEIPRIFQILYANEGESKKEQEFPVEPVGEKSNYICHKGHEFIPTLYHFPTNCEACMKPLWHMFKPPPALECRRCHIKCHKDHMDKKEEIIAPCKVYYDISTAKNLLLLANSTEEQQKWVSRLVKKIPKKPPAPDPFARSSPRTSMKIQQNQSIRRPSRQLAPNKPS
Below is a list of entries, each paired with its recorded IC50 value.

stdin: Which IC50 is listed for CC(C)(O)COc1ccc2c(C(=O)NC3CC4(C3)CC(Oc3cc(CC5CCNC5)ccc3C(N)=O)C4)cnn2c1 (stereo not drawn) [Example 304] ?
stdout: 0.005 to 0.05 µM

stdin: What about [H][C@]1(Oc2ncccc2C(N)=O)C[C@@]2(C[C@H](NC(=O)c3cnc4cc(Cl)ccn34)C2)C1 (stereo partly drawn) [Example 361] ?
stdout: 0.05 to 0.25 µM

stdin: What about NC(=O)c1cccnc1O[C@H]1CC2(C[C@H](NC(=O)c3cnn4c(C5CC5)c(OCCC(F)(F)F)ccc34)C2)C1 (stereo partly drawn) [Example 107] ?
stdout: 0.005 to 0.05 µM

stdin: What about CS(=O)(=O)c1ccccc1-c1cc(C#N)cc(C(=O)N[C@H]2CC3(C2)C[C@H](Oc2ncccc2C(N)=O)C3)c1 (stereo partly drawn) [Example 196] ?
stdout: < 0.005 µM

stdin: What about CC(C)(O)COc1ccc2c(C(=O)NC3CC4(C3)CC(Oc3cc(-n5cccn5)ccc3C(N)=O)C4)cnn2c1 (stereo not drawn) [Example 223] ?
stdout: 0.005 to 0.05 µM

Here is the next item to consider.
stdin: Which IC50 is listed for NC(=O)c1cccnc1OC1CC2(CC(NC(=O)c3cn(-c4ccccc4)nn3)C2)C1 (stereo not drawn) [Example 389] ?
stdout: 0.05 to 0.25 µM
